Catalogue of Activity readings, one per entry.
Test system: Mycobacterium tuberculosis
Test: Antimycobacterial activity against Mycobacterium tuberculosis H37Rv at MIC
Assay type: functional

# molecule-smiles, Activity / %
rows = [
    ("Cc1cc(O)c2c(c1)C(=O)C(O)=CC2=O", 99.9),
    ("CC(=O)Oc1cc(C)cc2c1C(=O)C=CC2=O", 99.9),
    ("NNC(=O)c1ccncc1", 99.9),
]

====

System: Mycobacterium tuberculosis
Assay: Activity of Mycobacterium tuberculosis mycothiol reductase
The molecules listed here are annotated with their log10(Km).
reported-endpoint: log10(Km) (log10 of the value in µM)

# molecule-smiles, reported-endpoint, result-value
data = [
    ("Cc1cc(O)c2c(c1)C(=O)C=CC2=O", "log10(Km)", 2.40),
    ("CC(=O)Oc1cc(C)cc2c1C(=O)C=CC2=O", "log10(Km)", 2.59),
    ("O=C1C=CC(=O)c2ccccc21", "log10(Km)", 2.51),
    ("Cc1cc(O)c2c(c1)C(=O)C(c1c(C)cc3c(c1O)C(=O)C=CC3=O)=CC2=O", "log10(Km)", 1.52),
    ("COc1cc(C)c(Cl)c2c1C(=O)C=CC2=O", "log10(Km)", 2.64),
    ("Cc1cc(O)c2c(c1)C(=O)C=C(c1c(C)cc(O)c3c1C(=O)C=CC3=O)C2=O", "log10(Km)", 1.80),
    ("Cc1cc(O)c2c(c1Cl)C(=O)C=CC2=O", "log10(Km)", 2.37),
    ("CC1=CC(=O)c2ccccc2C1=O", "log10(Km)", 2.68),
    ("Cc1cc(Cl)c2c(c1O)C(=O)C=CC2=O", "log10(Km)", 1.56),
]

====

Tested on: Mycobacterium tuberculosis
Experiment: Activity of Mycobacterium tuberculosis mycothiol reductase
Kind request: treat 0.2 s⁻¹ as inclusive, so kcat at 0.2 s⁻¹ or higher is fulfilled, anything lower is not fulfilled.

# molecule-smiles, answer-label
records = [
    ("Cc1cc(O)c2c(c1)C(=O)C=C(c1c(C)cc(O)c3c1C(=O)C=CC3=O)C2=O", "fulfilled"),
    ("CC1=CC(=O)c2ccccc2C1=O", "fulfilled"),
    ("Cc1cc(O)c2c(c1)C(=O)C(c1c(C)cc3c(c1O)C(=O)C=CC3=O)=CC2=O", "not fulfilled"),
    ("O=C1C=CC(=O)c2ccccc21", "fulfilled"),
    ("Cc1cc(Cl)c2c(c1O)C(=O)C=CC2=O", "fulfilled"),
    ("CC(=O)Oc1cc(C)cc2c1C(=O)C=CC2=O", "fulfilled"),
    ("Cc1cc(O)c2c(c1Cl)C(=O)C=CC2=O", "fulfilled"),
    ("COc1cc(C)c(Cl)c2c1C(=O)C=CC2=O", "not fulfilled"),
    ("Cc1cc(O)c2c(c1)C(=O)C=CC2=O", "fulfilled"),
]

Source listed as ChEMBL document CHEMBL1137533.
